All figures here come from PubChem BioAssay.

# assayExplanation: reduction of polyQ htt aggregates in cells – imaging, exon1htt(103Q)mCFP cells, high-content imaging, primary screen (AID 483);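 further: compound exposure lasted 3 days before fixation; percent of the per-plate median nuclei count of sample wells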
# protocolConditions: exon1htt(103Q)mCFP cell line, aggregate imaging, at 2 µM; measured here: cell count, toxicity
Please note: 1.0 applies when nuclei count is 90% or greater, and 0.0 applies otherwise.

Answered examples (6):
INSERT INTO measurements (molecule, grouplabel) VALUES
  ('CCc1nnc(NC(=O)c2ccc(-c3cccc(C(F)(F)F)c3)o2)s1', 0.0),
  ('CCOC(=O)CSC1=Nc2ccccc2C2=NC(CC(=O)NCc3ccc(OC)cc3)C(=O)N12 (stereo not drawn)', 0.0),
  ('O=C(c1ccccc1)c1ccc2nc[nH]c2c1', 1.0),
  ('COc1ccc(/C(O)=C2/C(=O)C(=O)N(CC3CCCO3)C2c2cccc(OC)c2)cc1 (stereo not drawn)', 1.0),
  ('CCCCN(CCCNC(=O)C1CCN(S(=O)(=O)CC)CC1)c1ccccc1', 1.0),
  ('CCC(=O)/C=C1\Sc2ccc(OC)cc2N1CCO', 1.0);

Is it the case that `COC(=O)c1cc(Br)c(=O)n(CCC2=CCCCC2)c1` has nuclei count reaching or exceeding 90%?
1.0

Now the same for `NC(=O)c1nsnc1-c1ccccc1O`
1.0

Now the same for `O=c1c2ccccc2c(C=Nc2ccc(Cl)cn2)c(O)n1-c1cc(Cl)ccc1N1CCOCC1`
0.0

----------
# assayExplanation: blockers of RIG-like receptor reporter activation – cell-based, Sendai virus stimulus, luciferase, 10K MLSCN set, TLR/RLR signaling modifier project, primary screen (AID 602276);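 further: firefly luciferase from ISG56 promoter only with Renilla not read in this screen; 0% = Sendai virus plus DMSO and 100% = medium plus DMSO without virus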
# protocolConditions: HEK293 RL24 IRF3 luciferase reporter, at 10 µM, stronger effect = higher value
readoutLabel: inhibition (%)
// units = %; emit number, no label

# count of solved cases: 10
INSERT INTO results (compound, measured) VALUES
  ('Cc1ccc(C)c(NC(=O)C2CCC(C)(C(=O)O)C2(C)C)c1 (stereo unspecified)', 15.8),
  ('CC1CCN(CCCNC(=O)c2cn(C)c3ccc(S(=O)(=O)N4CCCC4)cc3c2=O)CC1', 3.75),
  ('Cn1c(=O)c2c(nc(SCc3nn[nH]n3)n2Cc2ccccc2F)n(C)c1=O', 15),
  ('CCCCCn1c(=O)[nH]c2cc(C(=O)NCCN3CCOCC3)ccc2c1=O', 5.81),
  ('CCOC(=O)N1CCC(NC(=O)C2CCCN2C(=O)OCc2ccccc2)CC1 (stereo unspecified)', -11.6),
  ('O=C(c1ccc(-c2cccc(C(F)(F)F)c2)o1)N1CCOCC1', -39.9),
  ('CCCc1nn(CCc2ccccn2)c(N)c1CC', 14.8),
  ('CCOC(=O)c1ccc(COC(=O)CCc2nc3ccccc3[nH]c2=O)o1', 15.9),
  ('CCN1CCN(c2nc(-c3cccnc3)nc3ccccc23)CC1', 12.9),
  ('C=CCn1c(=O)[nH]c2cc(C(=O)N3CCN(c4cc(C)ccc4C)CC3)ccc2c1=O', 14.1);

Given `CCCCOC(=O)CSc1nc2c(cc1C#N)C(=O)CC(C)(C)C2` , state its recorded inhibition.
-23.7

----------
# assayExplanation: reduction of polyQ htt aggregates in cells – imaging, exon1htt(103Q)mCFP cells, high-content imaging, primary screen (AID 483);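 further: compound exposure lasted 3 days before fixation; percent of the per-plate median nuclei count of sample wells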
# protocolConditions: exon1htt(103Q)mCFP cell line, aggregate imaging, at 2 µM; measured here: cell count, toxicity
readoutLabel: nuclei count (%)
// units = %; emit number, no label

# count of solved cases: 5
INSERT INTO measurements (compound, readoutlabel, measured) VALUES
  ('CSc1ccccc1C(=O)NC1CC2CCC1C2 (stereo not given)', 'nuclei count', 93.5),
  ('COC(=O)COc1ccc(S(=O)(=O)NCCC2=CCCCC2)cc1', 'nuclei count', 79.1),
  ('CCc1ccccc1N=C1SCC(=O)N1C', 'nuclei count', 69.3),
  ('CC(=O)O[C@@]12CO[C@@H]1C[C@H](O)[C@@]1(C)C(=O)[C@H](O)C3=C(C)[C@@H](OC(=O)[C@H](O)[C@@H](NC(=O)OC(C)(C)C)c4ccccc4)C[C@](O)([C@@H](OC(=O)c4ccccc4)[C@H]21)C3(C)C', 'nuclei count', 4.4),
  ('CCSc1nc2c(c(=O)n(C)c(=O)n2C)n1Cc1ccc(Cl)cc1', 'nuclei count', 106);

Given `Cc1csc(NC(=O)c2sc3nc(-c4cccs4)ccc3c2N)n1` , state its recorded nuclei count.
68.7

Now the same for O=C(NCc1ccco1)C1Cc2ccccc2CN1S(=O)(=O)c1ccccc1F (stereo not given)
95.5

Now the same for O=C(NCc1ccc2c(c1)OCO2)c1cc2n(n1)C(C(F)(F)F)CC(c1ccc3c(c1)OCO3)N2 (stereo not given)
89.1

Now the same for CCC1CCCCN1S(=O)(=O)c1ccc(C(=O)Nc2nnc(-c3cccs3)o2)cc1 (stereo not given)
97

Now the same for O=S(=O)(NCC1CCCO1)c1ccc(S(=O)(=O)N2CCc3ccccc3C2)cc1 (stereo not given)
97.8
